target: Estrogen receptor (Rattus norvegicus) (UniProt P06211+Q62986); conditions: Uterus
Description: Uterotrophic effect in rats at 50 ug/animal/day hydroxytamoxifen
// label = t if Uterotropic effect is not less than 10, otherwise f

// query Is reported Uterotropic effect greater than or equal to 10 here: `C[C@]12CC[C@@H]3c4ccc(OC(=O)c5ccccc5)cc4CC[C@H]3[C@@H]1CC[C@@H]2O`
// result t

// query Kindly determine if Uterotropic effect recorded for `CC/C(=C(/c1ccc(OCCN(C)C)cc1)c1cccc(O)c1)c1ccccc1` is above or exactly 10.
// result f

// query Item `CC/C(=C(/c1ccccc1)c1ccc(OCCN(C)C)cc1)c1ccc(O)cc1` with Uterotropic effect of 10 or above?
// result t

// query Item `CC/C(=C(/c1ccccc1)c1ccc(OCCN(C)C)cc1)c1cccc(O)c1` with Uterotropic effect of 10 or above?
// result f

====

Here's a batch of compounds along with measured Antiuterotropic effect for Estrogen receptor (Rattus norvegicus) (UniProt P06211+Q62986).
Give the value as a plain number.

// query Fill in Antiuterotropic effect for record `CC/C(=C(/c1ccccc1)c1ccc(OCCN(C)C)cc1)c1ccc(O)cc1`
// result 15.7

// query Input `CC/C(=C(/c1ccc(OCCN(C)C)cc1)c1cccc(O)c1)c1ccccc1` , output reported Antiuterotropic effect.
// result 16.7

// query Hello, please tell me recorded Antiuterotropic effect for this one: `CC/C(=C(/c1ccccc1)c1ccc(OCCN(C)C)cc1)c1cccc(O)c1`
// result 19.7

// query Supply Antiuterotropic effect value. Item: `CC/C(=C(\c1ccccc1)c1ccc(OCCN(C)C)cc1)c1cccc(O)c1`
// result 15.7

// query Tell me Antiuterotropic effect reported for `C[C@]12CC[C@@H]3c4ccc(OC(=O)c5ccccc5)cc4CC[C@H]3[C@@H]1CC[C@@H]2O`
// result 21.6
